B1: F1*; the commonest letter at each place (parent)
chain: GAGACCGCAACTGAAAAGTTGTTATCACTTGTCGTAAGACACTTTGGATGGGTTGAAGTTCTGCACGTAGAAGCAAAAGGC

variants of: B1; test: fraction ligated after 30 min (ligated reads / total reads); higher = more ligase activity; conditions: with F1*sub RNA substrate (template-directed ligation), 42 °C
Lab note: compare fraction ligated against 0.8. Equal or greater, write 1. Smaller, write -1.

Some solved cases for reference:
1) A24G A39G
1
2) T35C C40A
1

Is reported fraction ligated greater than or equal to 0.8 here: G38C A57T
1

Is reported fraction ligated greater than or equal to 0.8 here: C33T A39T
1

Is reported fraction ligated greater than or equal to 0.8 here: A39C T45C
-1

Is reported fraction ligated greater than or equal to 0.8 here: T44A G50C
-1

Is reported fraction ligated greater than or equal to 0.8 here: C26T A56T
1

Is reported fraction ligated greater than or equal to 0.8 here: A41C A56G
-1

Is reported fraction ligated greater than or equal to 0.8 here: G34C T45G
-1

Is reported fraction ligated greater than or equal to 0.8 here: A36C C42G
1

Is reported fraction ligated greater than or equal to 0.8 here: A41C T45G
-1

Is reported fraction ligated greater than or equal to 0.8 here: A37T A39T
1

Is reported fraction ligated greater than or equal to 0.8 here: T44G G50C
-1

Is reported fraction ligated greater than or equal to 0.8 here: C40T G50C
-1

Is reported fraction ligated greater than or equal to 0.8 here: A41C T43G
-1

Origin of the recorded values: the supplement of paper PMC6755084
